// data source = patent US11091479B2

Molecular target: recombinant human DAO (diamine oxidase) (Homo sapiens, UniProt P19801)
Construct: purchased R&D systems
Sequence (P19801 20-751): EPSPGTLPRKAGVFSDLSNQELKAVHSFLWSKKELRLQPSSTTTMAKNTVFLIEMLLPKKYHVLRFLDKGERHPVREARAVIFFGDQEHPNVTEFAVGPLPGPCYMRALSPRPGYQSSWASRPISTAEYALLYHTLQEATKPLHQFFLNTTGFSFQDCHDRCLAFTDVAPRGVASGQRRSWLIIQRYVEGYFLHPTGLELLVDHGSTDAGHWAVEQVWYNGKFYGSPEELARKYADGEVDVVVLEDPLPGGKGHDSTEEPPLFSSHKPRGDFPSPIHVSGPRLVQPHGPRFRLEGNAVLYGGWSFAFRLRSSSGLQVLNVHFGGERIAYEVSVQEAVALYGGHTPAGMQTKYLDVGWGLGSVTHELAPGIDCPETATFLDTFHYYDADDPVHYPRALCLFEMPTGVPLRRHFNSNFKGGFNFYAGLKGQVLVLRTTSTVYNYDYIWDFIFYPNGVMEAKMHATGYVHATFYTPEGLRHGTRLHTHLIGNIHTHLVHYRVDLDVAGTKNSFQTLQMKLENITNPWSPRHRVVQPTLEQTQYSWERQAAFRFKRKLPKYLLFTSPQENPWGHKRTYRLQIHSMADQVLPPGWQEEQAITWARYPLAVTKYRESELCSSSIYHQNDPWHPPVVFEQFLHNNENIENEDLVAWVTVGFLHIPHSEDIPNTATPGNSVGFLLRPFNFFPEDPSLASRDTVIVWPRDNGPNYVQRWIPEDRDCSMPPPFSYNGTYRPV
Assay: Activity on recombinant human DAO, method similar to VAP-1 assay, 1 mM putrescine substrate
Type: biochemical
Conditions: read-out: Inhibitory Activity (IC50, nM) DAO
Method: The compounds according to the present technology were evaluated in terms of activity on recombinant human VAP-1 (R&D systems) by measuring the level of hydrogen peroxide in horseradish peroxidase (HRP)-coupled reaction using Amplex Red Hydrogen Peroxide Assay Kit (Molecular Probes, Invitrogen, USA). […] The inhibitory effect of the compounds was measured as a decrease (%) in the signal rate as compared to the control group without any inhibitor (only diluted DMSO). […]
Where a name gives a salt, the structure may show the parent alone.
Recorded log10 IC50 for the following compounds
result type: log10 IC50 (log10 of the value in nM)

| compound | log10 IC50 |
| --- | --- |
| NC/C(=C\F)Cn1nc2cc(-c3ccc4cn[nH]c4c3)ccn2c1=O [Example 37, hydrochloride] | -0.52 |
| NC/C(=C\F)Cn1nc2cc(-c3ccc(-c4noc(C5CC5)n4)cc3)ccn2c1=O [Example 29, hydrochloride] | 0.60 |
| NC/C(=C\F)Cn1nc2cc(-c3c[nH]c4ncccc34)ccn2c1=O [Example 35, hydrochloride] | -0.30 |
| CN(C)c1ccc(-c2ccn3c(=O)n(CC(CN)=C(F)F)nc3c2)cn1 [Example 51, trifluoroacetate] | 1.23 |
| Cc1cc(-c2ccn3c(=O)n(C/C(=C/F)CN)nc3c2)cc2c1NC(=O)CC2 [Example 43, hydrochloride] | 0.98 |
| NCC(Cn1nc2cc(C#Cc3ccc(N4CCOCC4)nc3)ccn2c1=O)=C(F)F [Example 58, trifluoroacetate] | 1.53 |

###

molecular target: recombinant human DAO (diamine oxidase) (Homo sapiens, UniProt P19801); construct: purchased R&D systems; assay: Activity on recombinant human DAO, method similar to VAP-1 assay, 1 mM putrescine substrate; format: biochemical; settings: read-out: Inhibitory Activity (IC50, nM) DAO
Where a name gives a salt, the structure may show the parent alone.
result type: log10(IC50) (log10 of the value in nM)

| compound | log10(IC50) |
| --- | --- |
| NC/C(=C\F)Cn1nc2cc(-c3ccc4c(c3)NC(=O)OC4)ccn2c1=O [Example 41, hydrochloride] | 0.11 |
| CN1C(=O)CCc2cc(-c3ccn4c(=O)n(CC(CN)=C(F)F)nc4c3)ccc21 [Example 54, trifluoroacetate] | 1.34 |
| NC/C(=C\F)Cn1nc2ccc(-c3ccc(N4CCOCC4)nc3)cn2c1=O [Example 11, hydrochloride] | -0.70 |
| NC/C(=C\F)Cn1nc2cc(-c3ccc4c(c3)NC(=O)CO4)ccn2c1=O [Example 42, hydrochloride] | 0.00 |
| NC/C(=C\F)Cn1nc2cc(-c3ccc(N4CCOCC4)nc3)ccn2c1=O [Example 33, hydrochloride] | 0.76 |
| CN(C)Cc1ccccc1-c1ccn2c(=O)n(C/C(=C/F)CN)nc2c1 [Example 23, hydrochloride] | 1.57 |
| NC/C(=C\F)Cn1nc2ccc(Br)cn2c1=O [Example 1, hydrochloride] | 2.00 |
| NC/C(=C\F)Cn1nc2cc(-c3ccc(C(=O)N4CCOCC4)cc3)ccn2c1=O [Example 24, hydrochloride] | 1.15 |
| NC/C(=C\F)Cn1nc2cc(-c3cccc(-c4noc(C5CC5)n4)c3)ccn2c1=O [Example 28, hydrochloride] | 0.70 |
| NCC(Cn1nc2ccc(Br)cn2c1=O)=C(F)F [Example 46, trifluoroacetate] | 4.41 |
| NC/C(=C\F)Cn1nc2cc(-c3ccc4nonc4c3)ccn2c1=O [Example 38, hydrochloride] | -0.40 |

###

Reported IC50 is given for each of the following compounds.
target: recombinant human MAO-B (monoamine oxidase-B) (Homo sapiens); construct: purchased Sigma-Aldrich; test: Activity on recombinant human MAO-B, method similar to VAP-1 assay, 1 mM benzylamine substrate; type: biochemical; conditions: read-out: Inhibitory Activity (IC50, nM) MAO-B
Structures can show the parent of a compound that is named as a salt.

| compound | IC50 / nM |
| --- | --- |
| COc1ccc(-c2ccn3c(=O)n(C/C(=C/F)CN)nc3c2)cn1 [Example 31, hydrochloride] | 61 |
| NC/C(=C\F)Cn1nc2ccc(-c3ccc(C(F)(F)F)nc3)cn2c1=O [Example 9, hydrochloride] | 37 |
| NC/C(=C\F)Cn1nc2ccc(-c3ccc(N4CCOCC4)nc3)cn2c1=O [Example 10, trifluoroacetate] | 64 |
| NCC(Cn1nc2cc(C#Cc3ccc(N4CCOCC4)nc3)ccn2c1=O)=C(F)F [Example 58, trifluoroacetate] | 5300 |
| NCC(Cn1nc2cc(-c3ccc(N4CCNCC4)cc3)ccn2c1=O)=C(F)F [Example 49, ditrifluoroacetate] | 53000 |
| NC/C(=C\F)Cn1nc2cc(-c3ccc(N4CCOCC4)nc3)ccn2c1=O [Example 33, hydrochloride] | 130 |
| NCC(Cn1nc2cc(C#Cc3ccc4c(c3)NCCO4)ccn2c1=O)=C(F)F [Example 59, ditrifluoroacetate] | 2700 |

###

biological target: recombinant human MAO-B (monoamine oxidase-B) (Homo sapiens, UniProt P27338); construct: purchased Sigma-Aldrich; assay: Activity on recombinant human MAO-B, method similar to VAP-1 assay, 1 mM benzylamine substrate; type: biochemical; conditions: read-out: Inhibitory Activity (IC50, nM) MAO-B
Sequence (P27338 whole entry): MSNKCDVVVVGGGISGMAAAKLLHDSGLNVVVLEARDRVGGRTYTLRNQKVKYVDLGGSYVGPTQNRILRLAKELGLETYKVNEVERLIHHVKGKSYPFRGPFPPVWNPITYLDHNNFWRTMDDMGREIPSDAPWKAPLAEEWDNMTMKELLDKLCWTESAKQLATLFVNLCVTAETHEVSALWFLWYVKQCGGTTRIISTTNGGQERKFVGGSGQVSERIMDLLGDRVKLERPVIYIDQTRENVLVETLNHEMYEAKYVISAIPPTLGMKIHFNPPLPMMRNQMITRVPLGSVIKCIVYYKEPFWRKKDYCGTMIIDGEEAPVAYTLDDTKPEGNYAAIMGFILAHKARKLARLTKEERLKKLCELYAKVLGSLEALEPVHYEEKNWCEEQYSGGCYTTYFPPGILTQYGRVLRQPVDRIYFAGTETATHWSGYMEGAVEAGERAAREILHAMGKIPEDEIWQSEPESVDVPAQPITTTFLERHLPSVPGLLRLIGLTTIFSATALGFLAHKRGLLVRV
Counter-ions that a name gives are not always drawn.
This listing pairs compounds with measured IC50.
result type: IC50 (nM)

| compound | qualifier symbol | val |
| --- | --- | --- |
| Cc1cc(-c2ccn3c(=O)n(CC(CN)=C(F)F)nc3c2)cc2c1NC(=O)CC2 [Example 53, trifluoroacetate] | = | 320 |
| NCC(Cn1nc2cc(Br)ccn2c1=O)=C(F)F [Example 47, trifluoroacetate] | > | 100000 |
| NC/C(=C\F)Cn1nc2cc(-c3cccc(-c4noc(C5CC5)n4)c3)ccn2c1=O [Example 28, hydrochloride] | = | 290 |
| NC/C(=C\F)Cn1nc2cc(-c3ccc4nn[nH]c4c3)ccn2c1=O [Example 39, hydrochloride] | = | 1100 |
| NC/C(=C\F)Cn1nc2ccc(-c3ccc4c(c3)OCO4)cn2c1=O [Example 12, hydrochloride] | < | 10 |
| CCn1cc(-c2ccn3c(=O)n(CC(CN)=C(F)F)nc3c2)cn1 [Example 55, trifluoroacetate] | = | 5100 |
| NCC(Cn1nc2cc(C#Cc3cnc4c(c3)NCCO4)ccn2c1=O)=C(F)F [Example 60, ditrifluoroacetate] | > | 100000 |
| CC(=O)Nc1ccc(-c2ccc3nn(C/C(=C/F)CN)c(=O)n3c2)cc1 [Example 2, trifluoroacetate] | = | 1780 |
| CS(=O)(=O)c1cccc(-c2ccn3c(=O)n(C/C(=C/F)CN)nc3c2)c1 [Example 22, hydrochloride] | = | 180 |
| NCC(Cn1nc2cccc(Br)n2c1=O)=C(F)F [Example 45, trifluoroacetate] | > | 100000 |
| NCC(Cn1nc2cc(C#Cc3ccc4c(c3)CCC(=O)N4)ccn2c1=O)=C(F)F [Example 62, trifluoroacetate] | = | 14000 |
| NCC(Cn1nc2cc(-c3ccc(C(F)(F)F)nc3)ccn2c1=O)=C(F)F [Example 50, trifluoroacetate] | = | 100 |
| NC/C(=C\F)Cn1nc2cc(-c3ccc4c(c3)NC(=O)CO4)ccn2c1=O [Example 42, hydrochloride] | = | 1400 |
| NCC(Cn1nc2cc(-c3ccc4c(c3)OCO4)ccn2c1=O)=C(F)F [Example 52, trifluoroacetate] | = | 37 |
| NC/C(=C\F)Cn1nc2ccc(-c3ccc4sc(N)nc4c3)cn2c1=O [Example 14, trifluoroacetate] | = | 69 |
| CN(C)c1ccc(-c2ccn3c(=O)n(CC(CN)=C(F)F)nc3c2)cn1 [Example 51, trifluoroacetate] | = | 150 |
